- subject-of-test: T1, CXCR3 (Homo sapiens, UniProt P49682)
- T1 chain: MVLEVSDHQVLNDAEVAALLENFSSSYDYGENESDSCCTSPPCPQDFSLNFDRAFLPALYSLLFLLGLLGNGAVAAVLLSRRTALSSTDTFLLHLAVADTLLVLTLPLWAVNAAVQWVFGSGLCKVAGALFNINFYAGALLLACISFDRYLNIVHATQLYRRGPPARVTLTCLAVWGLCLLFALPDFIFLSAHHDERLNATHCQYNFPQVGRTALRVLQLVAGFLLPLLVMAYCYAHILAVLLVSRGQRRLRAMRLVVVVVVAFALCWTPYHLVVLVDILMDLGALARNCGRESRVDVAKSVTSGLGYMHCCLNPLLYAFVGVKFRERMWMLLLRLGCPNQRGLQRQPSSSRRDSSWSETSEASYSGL
- assay-overview: homologous competition 125I radioligand binding on L1.2 cells
metric-name: pKd
On this scale, pKd is minus log10 of a concentration expressed in M (mol/L).

# lookup: pKd of CXCL11 (protein) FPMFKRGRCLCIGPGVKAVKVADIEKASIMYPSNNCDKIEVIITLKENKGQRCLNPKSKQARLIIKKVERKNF
8.42
